Reported sfGFP reporter fluorescence is given for each of the following variants.
B1: library; numbered along this chain (parent)
chain: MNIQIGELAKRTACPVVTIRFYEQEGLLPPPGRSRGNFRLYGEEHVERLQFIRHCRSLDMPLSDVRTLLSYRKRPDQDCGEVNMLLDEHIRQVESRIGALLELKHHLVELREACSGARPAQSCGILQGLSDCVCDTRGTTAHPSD

- Variants of: B1
- Assay Procedure: sfGFP reporter fluorescence (15 h) (µM FITC); higher = stronger transcriptional activation
- Setup Conditions: library round: Round 1; ligand: 30 µM Zn
Endpoint: sfGFP reporter fluorescence

variant_label="E94Y P143C" endpoint="sfGFP reporter fluorescence" reading=0.0906
variant_label="L85Y K104V" endpoint="sfGFP reporter fluorescence" reading=0.223
variant_label="P61N V108M R111C" endpoint="sfGFP reporter fluorescence" reading=0.237
variant_label="D131H D135P" endpoint="sfGFP reporter fluorescence" reading=0.455
variant_label="N83T P143W" endpoint="sfGFP reporter fluorescence" reading=0.131
variant_label="Q127A D135P" endpoint="sfGFP reporter fluorescence" reading=0.244
variant_label="P61N D64K V108H" endpoint="sfGFP reporter fluorescence" reading=1.48
variant_label="D131F D135A" endpoint="sfGFP reporter fluorescence" reading=0.345
variant_label="P61N E112V" endpoint="sfGFP reporter fluorescence" reading=0.387
variant_label="M60L D135A" endpoint="sfGFP reporter fluorescence" reading=1.4
variant_label="L100V G128I" endpoint="sfGFP reporter fluorescence" reading=1.24
variant_label="C55L M60L P61N D64K" endpoint="sfGFP reporter fluorescence" reading=0.382
variant_label="D131A D135P" endpoint="sfGFP reporter fluorescence" reading=0.654
variant_label="E109A D131C" endpoint="sfGFP reporter fluorescence" reading=0.462
variant_label="P61N P143L" endpoint="sfGFP reporter fluorescence" reading=0.804
variant_label="N83T L107C" endpoint="sfGFP reporter fluorescence" reading=1.53
variant_label="R20W R111L" endpoint="sfGFP reporter fluorescence" reading=0.0727
